# Measurement target: T1, human AMHRII (anti-Mullerian hormone receptor type 2) (human, UniProt Q16671 18-573)
# T1 construct: whole, on cells; also called AMHR2; human AMHR2
# T1 sequence (looked up): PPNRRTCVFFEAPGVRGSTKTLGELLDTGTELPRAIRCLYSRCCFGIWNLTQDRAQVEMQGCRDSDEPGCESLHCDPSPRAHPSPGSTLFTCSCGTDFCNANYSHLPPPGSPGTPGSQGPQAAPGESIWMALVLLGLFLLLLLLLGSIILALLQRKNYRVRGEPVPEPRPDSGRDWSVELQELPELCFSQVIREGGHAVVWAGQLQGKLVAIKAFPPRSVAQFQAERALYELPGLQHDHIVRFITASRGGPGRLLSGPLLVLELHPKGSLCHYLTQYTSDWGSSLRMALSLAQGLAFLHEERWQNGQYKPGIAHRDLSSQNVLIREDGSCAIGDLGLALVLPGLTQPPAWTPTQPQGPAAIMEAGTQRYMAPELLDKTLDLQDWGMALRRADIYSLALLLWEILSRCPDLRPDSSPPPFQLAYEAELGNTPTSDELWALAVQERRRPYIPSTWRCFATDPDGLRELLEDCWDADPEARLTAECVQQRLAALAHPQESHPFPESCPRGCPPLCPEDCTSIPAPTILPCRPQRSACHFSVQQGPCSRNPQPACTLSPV
# Assay text: FACS on CHO-K1 cells over-expressing human AMHR2
# Protocol: CHO-K1 cells over-expressed AMHR2 were harvested from flasks. 100 μl of 1×10⁶ cells/ml of cells were incubated with the humanized antibodies in 3-fold serial dilutions starting from 300 nM to 0.001 nM for 30 minutes on ice. After being washed with 200 μl of FACS buffer twice, cells were incubated with secondary antibody for 30 minutes on ice. Cells were washed with 200 μl of FACS buffer twice and analyzed by FACS.
Kindly supply the reported EC50 values for the records listed here.
Just the number in nM, nothing appended.

Per the records, this binder ( 94C4C3 H1L1 hIgG1 (antibody, V domains shown, Humanized, human IgG1; also called 94C4C3 H1L1 hlgG1) VH: QLQLQESGPGLVKPSETLSLTCTVSGYSITSDYAWNWIRQPPGKGLEWIGYISYSGSISYNPSLKSRVTISVDTSKNQFSLKLSSVTAADTAVYYCARSRYSWFDYWGQGTLVTVSS VL: EIVLTQSPGTLSLSPGERATLSCSASESVDTYGNSFMHWYQQKPGQAPRLLIYRASSLESGIPDRFSGSGSGTDFTLTISRLEPEDFAVYYCQQSNEDPYTFGGGTKVEIK ) has EC50 equal to 1.7

Per the records, this binder ( 94C4C3 H1L4 hIgG1 (antibody, V domains shown, Humanized, human IgG1; also called 94C4C3 H1L4 hlgG1) VH: QLQLQESGPGLVKPSETLSLTCTVSGYSITSDYAWNWIRQPPGKGLEWIGYISYSGSISYNPSLKSRVTISVDTSKNQFSLKLSSVTAADTAVYYCARSRYSWFDYWGQGTLVTVSS VL: DIVLTQSPGTLSVSPGERATLSCSASESVDTYGNSFMHWYQQKPGQPPKLLIYRASSLESGIPVRFSGSGSRTDFTLTISRVEAEDFAVYYCQQSNEDPYTFGGGTKLEIK ) has EC50 equal to 1.21

Per the records, this binder ( 94C4C3 H2L1 hIgG1 (antibody, V domains shown, Humanized, human IgG1; also called 94C4C3 H2L1 hlgG1) VH: QLQLQESGPGLVKPSETLSLTCTVSGYSITSDYAWNWIRQPPGKGLEWMGYISYSGSISYNPSLKSRITISRDTSKNQFSLKLSSVTAADTAVYYCARSRYSWFDYWGQGTLVTVSS VL: EIVLTQSPGTLSLSPGERATLSCSASESVDTYGNSFMHWYQQKPGQAPRLLIYRASSLESGIPDRFSGSGSGTDFTLTISRLEPEDFAVYYCQQSNEDPYTFGGGTKVEIK ) has EC50 equal to 1.31

Per the records, this binder ( 31D9B3 VH1.1-VL2.3 hIgG1 (antibody, V domains shown, Humanized, PTM de-risked, human IgG1; also called 31D9B3 VH1.1-VL2.3 hlgG1) VH: QVQLVQSGAEVKKPGASVKVSCKASGYTFTDYWVSWVRQAPGQGLEWMGEIYPKEGVSNFNEKFKGRVTMTTDTSTSTAYMELRSLRSDDTAVYYCARQRDYWGQGTLVTVSS VL: DVVMTQSPLSLPVTLGQPASISCRSSQSLEYGTGYTYLEWYLQRPGQSPRLLIYGVSNRFSGVPDRFSGSGSGTDFTLKISRVEAEDVGVYYCFQATHDPNTFGQGTKLEIK ) has EC50 equal to 145

Per the records, this binder ( xi31D9B3 hIgG1 (antibody, V domains shown, Murine variable domains in human chimeric format, human IgG1; also called xi31D9B3 hlgG1; 31D9B3 hlgG1) VH: QVKLLQSGAALVKPGASVKMSCKASGYTFTDYWVSWVKQSHGKSLEWIGEIYPKNGVSNFNEKFKGKATLTVDKSTSTAYMELRRLTSEDSAIFYCTRQRDYWGQGVMVTVSS VL: DVVLTQTPGSLSVTLGDQASISCRSSQSLEYGDGYTYLEWYLQKPGQSPQLLIYGVSNRFSGVPDRFIGSGSGTDFTLKISRVEPEDLGVYYCFQATHDPNTFGAGTKLELK ) has EC50 equal to 0.881

Per the records, this binder ( 108F3D1E9 H2L3 hIgG1 (antibody, V domains shown, Humanized, human IgG1; also called 108F3D1E9 H2L3 hlgG1) VH: QLQLQESGPGLVKPSETLSLTCTVSGYSITSDFAWNWIRQPPGKGLEWMGYISFSGSTSYNPSLKSRVTISRDTSKNQFSLKLSSVTAADTAVYYCAGSRYSWFAYWGQGTLVTVSS VL: DIVLTQSPSSLSASVGDRVTITCRASESVDTYGNSFMHWYQQKPGQPPKLLIYRASNLESGIPARFSGSGSGTDFTLTISSVQPEDFATYYCQQSNEDPYTFGGGTKVEIK ) has EC50 equal to 0.74

Per the records, this binder ( xi94C4C3 hIgG1 (antibody, V domains shown, Murine variable domains in human chimeric format, human IgG1; also called xi94C4C3 hlgG1; 94C4C3 (chimeric)) VH: DVQLQESGPGLVKPSQSLSLTCTVTGYSITSDYAWNWIRQFPGNKLEWMGYISYSGSISYNPSLKSRISITRDTSKNQFFLQLNSVTTEDTATYYCARSRYSWFDYWGQGTLVTVSA VL: DIVLTQSPTSLAVSLGQRATLSCSASESVDTYGNSFMHWYQQKPGQPPKLLIYRASSLESGIPVRFSGSGSRTDFTLTINPVEAADVATYYCQQSNEDPYTFGGGTKLEIK ) has EC50 equal to 1.21

Per the records, this binder ( 31D9B3 VH1.1-VL2 hIgG1 (antibody, V domains shown, Humanized, PTM de-risked (VH N54E), human IgG1; also called 31D9B3 VH1.1-VL2 hlgG1) VH: QVQLVQSGAEVKKPGASVKVSCKASGYTFTDYWVSWVRQAPGQGLEWMGEIYPKEGVSNFNEKFKGRVTMTTDTSTSTAYMELRSLRSDDTAVYYCARQRDYWGQGTLVTVSS VL: DVVMTQSPLSLPVTLGQPASISCRSSQSLEYGDGYTYLEWYLQRPGQSPRLLIYGVSNRFSGVPDRFSGSGSGTDFTLKISRVEAEDVGVYYCFQATHDPNTFGQGTKLEIK ) has EC50 equal to 0.875

Per the records, this binder ( 31D9B3 VH1-VL2.1 hIgG1 (antibody, V domains shown, Humanized, PTM de-risked (VL D(30C)S), human IgG1; also called 31D9B3 VH1-VL2.1 hlgG1) VH: QVQLVQSGAEVKKPGASVKVSCKASGYTFTDYWVSWVRQAPGQGLEWMGEIYPKNGVSNFNEKFKGRVTMTTDTSTSTAYMELRSLRSDDTAVYYCARQRDYWGQGTLVTVSS VL: DVVMTQSPLSLPVTLGQPASISCRSSQSLEYGSGYTYLEWYLQRPGQSPRLLIYGVSNRFSGVPDRFSGSGSGTDFTLKISRVEAEDVGVYYCFQATHDPNTFGQGTKLEIK ) has EC50 equal to 5.52

Per the records, this binder ( 94C4C3 H2L4 hIgG1 (antibody, V domains shown, Humanized, human IgG1; also called 94C4C3 H2L4 hlgG1) VH: QLQLQESGPGLVKPSETLSLTCTVSGYSITSDYAWNWIRQPPGKGLEWMGYISYSGSISYNPSLKSRITISRDTSKNQFSLKLSSVTAADTAVYYCARSRYSWFDYWGQGTLVTVSS VL: DIVLTQSPGTLSVSPGERATLSCSASESVDTYGNSFMHWYQQKPGQPPKLLIYRASSLESGIPVRFSGSGSRTDFTLTISRVEAEDFAVYYCQQSNEDPYTFGGGTKLEIK ) has EC50 equal to 1.01
